For each of the compounds below, state its IC50.
target: PI3K (Homo sapiens, UniProt P48736); construct: PI3 Kinase γ IC50; other: PI3 Kinase γ; other: PI3 Kinase γ isoform, fluorescence polarization; test: Fluorescence polarization assay for PI3K; type: biochemical; conditions: PI3 Kinase γ; read-out: PI3 Kinase γ IC50
Sequence (P48736 whole entry, canonical isoform): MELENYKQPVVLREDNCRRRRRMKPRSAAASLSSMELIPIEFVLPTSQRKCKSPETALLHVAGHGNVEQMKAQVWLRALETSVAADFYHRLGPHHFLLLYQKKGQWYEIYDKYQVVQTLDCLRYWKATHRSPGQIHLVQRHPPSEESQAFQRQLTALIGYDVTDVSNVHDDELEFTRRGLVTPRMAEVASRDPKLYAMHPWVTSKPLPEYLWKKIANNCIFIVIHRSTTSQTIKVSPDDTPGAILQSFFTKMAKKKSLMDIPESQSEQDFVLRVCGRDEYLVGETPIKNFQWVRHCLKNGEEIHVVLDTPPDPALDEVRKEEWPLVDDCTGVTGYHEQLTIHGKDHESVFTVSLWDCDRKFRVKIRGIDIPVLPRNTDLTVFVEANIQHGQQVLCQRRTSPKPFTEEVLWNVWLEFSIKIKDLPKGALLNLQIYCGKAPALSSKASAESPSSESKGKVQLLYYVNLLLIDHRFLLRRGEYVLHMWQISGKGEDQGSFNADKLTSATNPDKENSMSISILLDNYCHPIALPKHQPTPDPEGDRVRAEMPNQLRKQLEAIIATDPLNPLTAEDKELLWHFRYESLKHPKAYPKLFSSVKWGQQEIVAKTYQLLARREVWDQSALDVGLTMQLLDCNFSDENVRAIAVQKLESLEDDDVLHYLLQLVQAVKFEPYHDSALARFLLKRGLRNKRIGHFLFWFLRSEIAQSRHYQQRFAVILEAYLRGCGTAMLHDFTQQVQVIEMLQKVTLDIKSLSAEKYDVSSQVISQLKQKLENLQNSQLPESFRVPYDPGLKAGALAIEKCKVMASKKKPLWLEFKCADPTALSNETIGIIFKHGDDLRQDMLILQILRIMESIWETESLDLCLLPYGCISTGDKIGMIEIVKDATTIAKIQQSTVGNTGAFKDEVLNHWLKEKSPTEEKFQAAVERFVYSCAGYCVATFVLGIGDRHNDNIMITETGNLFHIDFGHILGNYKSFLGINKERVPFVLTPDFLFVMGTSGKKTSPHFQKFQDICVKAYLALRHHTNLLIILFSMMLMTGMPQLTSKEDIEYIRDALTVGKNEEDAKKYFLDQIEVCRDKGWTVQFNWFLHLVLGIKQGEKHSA
# output: bare number, implied unit nM

Prompt line: Please list IC50 recorded for the compound CCn1ncc2c(N3CC4CCC(C3)O4)nc(-c3ccc(NC(=O)Nc4ccc(N5CCN(C)CC5)cc4)cc3)nc21
Response line: 1340

Prompt line: Please supply the value of reported IC50 for the item CN(C)CCOc1ccc(NC(=O)Nc2ccc(-c3nc(N4CC5CCC(C4)O5)c4cnn(CCC#N)c4n3)cc2)cc1
Response line: 2600

###

biological target: PI3K (Homo sapiens); construct: PI3 Kinase α IC50; other: PI3 Kinase α; other: PI3 Kinase α isoform, fluorescence polarization; assay: Fluorescence polarization assay for PI3K; format: biochemical; settings: PI3 Kinase α; read-out: PI3 Kinase α IC50
// NB: equality with 1 µM counts as condition not met; only IC50 strictly below is condition met

Prompt line: Strictly below 1 µM in IC50? CN(C)c1ccc(NC(=O)Nc2ccc(-c3nc(N4CC5CCC(C4)O5)c4cnn(C)c4n3)cc2)cc1
Response line: condition met

Prompt line: Item CCNC(=O)Nc1ccc(-c2nc(N3CC4CCC(C3)O4)c3cnn(C(C)(C)C)c3n2)cc1 : IC50 beneath 1 µM, strictly?
Response line: condition met

Prompt line: Please check: IC50 for CC(C)C(=O)N1CCC(n2ncc3c(N4CC5CCC(C4)O5)nc(-c4ccc(NC(=O)NCCO)cc4)nc32)CC1 , strictly under 1 µM or not?
Response line: condition not met

Prompt line: Confirm or reject: IC50 of N#CCCn1ncc2c(N3CC4CCC(C3)O4)nc(-c3ccc(NC(=O)OCCO)cc3)nc21 lies strictly below 1 µM
Response line: condition not met

Prompt line: Say whether its IC50 is strictly beneath 1 µM. Entry: CCn1ncc2c(N3CC4CCC(C3)O4)nc(-c3ccc(NC(=O)Nc4ccncc4)cc3)nc21
Response line: condition met

Prompt line: Given the entry CN(C)CCn1ncc2c(N3CC4CCC(C3)O4)nc(-c3ccc(NC(=O)Nc4ccncc4)cc3)nc21 , would its reported IC50 be below 1 µM?
Response line: condition met

Prompt line: Answer whether the compound O=C(Nc1ccc(-c2nc(N3CC4CCC(C3)O4)c3cnn(CCF)c3n2)cc1)NC1CC1 has IC50 strictly less than 1 µM
Response line: condition not met

Prompt line: Given CCNC(=O)Nc1ccc(-c2nc(N3CC4CCC(C3)O4)c3cnn(C4CCN(Cc5cccnc5)CC4)c3n2)cc1 , is recorded IC50 strictly lower than 1 µM?
Response line: condition not met

Prompt line: Just wondering, is IC50 of Oc1cccc(-c2nc(N3CC4CCC(C3)O4)c3cnn(-c4ccccc4)c3n2)c1 below 1 µM?
Response line: condition not met

Prompt line: Lab log: compare recorded IC50 with 1 µM; is it strictly lower for CNC(=O)Nc1ccc(-c2nc(N3CC4CCC(C3)O4)c3cnn(C4CCN(Cc5cccnc5)CC4)c3n2)cc1 ?
Response line: condition met

Prompt line: Does the reported IC50 of the following compound sit strictly below 1 µM? CC(C)(C)n1ncc2c(N3CC4CCC(C3)O4)nc(-c3ccc(NC(=O)NCCF)cc3)nc21
Response line: condition not met

Prompt line: Say whether its IC50 is strictly beneath 1 µM. Entry: CN1CCN(c2ccc(NC(=O)Nc3ccc(-c4nc(N5C[C@@H]6C[C@H]5CO6)c5cnn(CC(F)(F)F)c5n4)cc3)cc2)CC1
Response line: condition met

Prompt line: Could you please tell me whether IC50 recorded for CCn1ncc2c(N3CC4CCC(C3)O4)nc(-c3ccc(NC(=O)Nc4ccc(N5CCOCC5)cc4)cc3)nc21 is less than 1 µM?
Response line: condition met

Prompt line: Please indicate whether the reported IC50 of O=C(Nc1ccncc1)Nc1ccc(-c2nc(N3CC4CCC(C3)O4)c3cnn(CC(F)(F)F)c3n2)cc1 [Example 5] is strictly below 1 µM.
Response line: condition met

Prompt line: Hello, I'm reviewing records and need to know if IC50 of CNC(=O)Nc1ccc(-c2nc(N3CC4CCC(C3)O4)c3cnn(C4CCN(C(=O)OC(C)C)CC4)c3n2)cc1 is below 1 µM. Could you check?
Response line: condition not met
